This listing pairs compounds with measured slope (Schild regression).
target: adenosine (purine) receptors (Cavia porcellus); construct: Ilea were removed from sacrificed guinea pigs and placed in organ baths; from tissue; host or cells: guinea pig ileum; assay: guinea pig ileum twitch test, antagonism of purine receptors (agonist 2-chloroadenosine); details: slope in parentheses after pA2
Respond using a number only.

Example entries begin here.
- Compound: "O=C(O)/C=C/c1ccc(-c2nc3c(=O)n(Cc4ccccc4)c(=O)n(Cc4ccccc4)c3[nH]2)cc1 [Example 15]"
  Outcome Measure: "slope (Schild regression)"
  Reported Measurement: 0.9
- Compound: "CC(C)Cn1c(=O)c2nc(-c3ccc(/C=C/C(=O)O)cc3)[nH]c2n(CC(C)C)c1=O [Example 19]"
  Outcome Measure: "slope (Schild regression)"
  Reported Measurement: 1.0

From here, focus on the item given below.
Problem: Query slope (Schild regression) for CCCn1c(=O)n(C)c(=O)c2nc(-c3ccc(/C=C/C(=O)O)cc3)[nH]c21 [Example 11]
Solution: 1.0

====

This listing pairs molecules with measured slope (Schild regression).
Target: adenosine (purine) receptors (Cavia porcellus)
Construct: Ilea were removed from sacrificed guinea pigs and placed in organ baths; from tissue; host or cells: guinea pig ileum
Sequence (P47745 1-326): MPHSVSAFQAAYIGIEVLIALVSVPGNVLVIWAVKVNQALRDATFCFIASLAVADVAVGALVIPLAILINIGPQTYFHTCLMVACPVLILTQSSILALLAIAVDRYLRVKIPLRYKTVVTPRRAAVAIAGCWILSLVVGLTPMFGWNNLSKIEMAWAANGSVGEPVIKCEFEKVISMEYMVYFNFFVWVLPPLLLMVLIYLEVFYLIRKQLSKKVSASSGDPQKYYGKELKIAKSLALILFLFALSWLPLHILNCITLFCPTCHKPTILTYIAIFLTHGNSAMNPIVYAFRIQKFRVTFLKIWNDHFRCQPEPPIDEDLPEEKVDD
Experiment: guinea pig ileum twitch test, antagonism of purine receptors (agonist 2-chloroadenosine)
Settings: slope in parentheses after pA2
Respond using a number only.

Example entries begin here.
- Molecule: "CCCCn1c(=O)c2nc(-c3ccc(/C=C/C(=O)O)cc3)[nH]c2n(CCCC)c1=O [Example 14]"
  System: "adenosine (purine) receptors (Cavia porcellus)"
  slope (Schild regression): 1.0
- Molecule: "Cn1c(=O)c2nc(-c3ccc(/C=C/C(=O)O)cc3)[nH]c2n(Cc2ccccc2)c1=O [Example 18]"
  System: "adenosine (purine) receptors (Cavia porcellus)"
  slope (Schild regression): 0.9
- Molecule: "CCCn1c(=O)c2nc(-c3ccc(/C=C/C(=O)O)cc3)[nH]c2n(CCC)c1=O [Example 6]"
  System: "adenosine (purine) receptors (Cavia porcellus)"
  slope (Schild regression): 0.9

From here, focus on the item given below.
Problem: Please look at Cn1c(=O)c2[nH]cnc2n(C)c1=O [THEOPHYLLINE, 1,3-dimethylxanthine, reference compound] and tell me its recorded slope (Schild regression) on adenosine (purine) receptors (Cavia porcellus).
Solution: 1.1

Sourced from patent US5015647A
